- MEASUREMENT TARGET: HLA-A*0201 loaded with the Carcinoembryonic antigen (CEA)-derived … peptide (biotinylated on the C-terminal biotinylation tag)
- METHOD SUMMARY: SPR (Biacore), Example 4
pKd: −log10 of the molar value.
READOUT: pKd

Check out these entries, answers already filled in.
BINDER	pKd
SEQ ID NO 9 (receptor) MGHLPKPTLWAEPGSVITMQRPVTLRCQGGQETQEYRLYRERKTAPWITRIPQELVKKGQFPIPSITWEHAGRYRCYYGSDTAGRSESSDPLELVVTGAYIKPTLSAQPSPVVNSGGNVTLQCDSQVAFDGFILCKEGEDEHPQCLSSQPHARGSSRAIFSVGPVSPSRRWWYRCYAYDSNSPYEWSLPSDLLELLVL	≥ 6.00
SEQ ID NO 32 (receptor) MGHLPKPTLWAEPGSVITMDQPVTLRCQGGQETQEYRLYREKKTAPWITRIPQELVKKGQFPIPSITWEHAGRYRCYYGTQTAGRSESSDPLELVVTGVYIKPTLSAQPSPVVNSGGNVTLQCDSQVAFDGFILCKEGEDEHPQCLNSQPHARGSSRAIFSVGPVSPGRRWWYRCYAYDSNSPYEWSLPSDLLELLVL	≥ 6.00

Please examine the following record next.
Please supply the value of reported pKd for the item SEQ ID NO 71 (receptor) MHLPKPTLWAEPGSVITMDQPVTLRCQGGQETQEYRLYREKKTAPWITRIPQELVKKGQFPIPSITWEHAGRYRCYYGTQTAGRSESSDPLELVVTGVYIKPTLSAQPSPVVNSGGNVTLQCDSQVAFDGFILCKEGEDEHPQCLNSQPHARGSSRAIFSVGPVSPSRRWWYRCYAYDSNSPYEWSLPSDLLELDVDG
≥ 6.00
